Test system: Candida albicans
procedure-summary: Antifungal activity against Candida albicans Y0109 after 24 hrs by micro-broth dilution method
Format: functional
particulars: Y0109, 24 h
For each record, write down the corresponding MIC80.
Answer with a number only, understood to be in µg/mL.

// query Could you please provide reported MIC80 for CCCCNC(=S)SCC(O)(Cn1cncn1)c1ccc(F)cc1F (racemic) ? Thanks!
// result 0.5

// query Could you please provide reported MIC80 for CCCNC(=S)SCC(O)(Cn1cncn1)c1ccc(F)cc1F (racemic) ? Thanks!
// result 0.25

* * *

System: Candida albicans
procedure-summary: Antifungal activity against Candida albicans SC5314 after 24 hrs by micro-broth dilution method
Assay type: functional
particulars: SC5314, 24 h
For each record, write down the corresponding MIC80.
Answer with a number only, understood to be in µg/mL.

// query GET MIC80 | system: Candida albicans | item: Cc1ccccc1N1CCN(C(=S)SCC(O)(Cn2cncn2)c2ccc(F)cc2F)CC1 (racemic)
// result 0.25

// query GET MIC80 | system: Candida albicans | item: OC(CSC(=S)N1CCN(c2ccccc2)CC1)(Cn1cncn1)c1ccc(F)cc1F (racemic)
// result 0.25

// query GET MIC80 | system: Candida albicans | item: CN(C/C=C/C#CC(C)(C)C)Cc1cccc2ccccc12
// result 4

// query GET MIC80 | system: Candida albicans | item: Cc1cccc(N2CCN(C(=S)SCC(O)(Cn3cncn3)c3ccc(F)cc3F)CC2)c1C (racemic)
// result 0.5

* * *

System: Candida albicans
procedure-summary: Antifungal activity against Candida albicans SC5314 after 24 hrs by micro-broth dilution method
Format: functional
particulars: SC5314, 24 h
For each record, write down the corresponding MIC80.
Answer with a number only, understood to be in µg/mL.

// query Could you please provide reported MIC80 for CCC(C)n1ncn(-c2ccc(N3CCN(c4ccc(OCC5COC(Cn6cncn6)(c6ccc(Cl)cc6Cl)O5)cc4)CC3)cc2)c1=O (centres undefined) ? Thanks!
// result 4

// query Could you please provide reported MIC80 for OC(CSC(=S)N1CCN(c2cccc(Cl)c2Cl)CC1)(Cn1cncn1)c1ccc(F)cc1F (racemic) ? Thanks!
// result 0.5

// query Could you please provide reported MIC80 for CNC(=S)SCC(O)(Cn1cncn1)c1ccc(F)cc1F (racemic) ? Thanks!
// result 1

// query Could you please provide reported MIC80 for OC(CSC(=S)N1CCN(c2ccc(F)cc2)CC1)(Cn1cncn1)c1ccc(F)cc1F (racemic) ? Thanks!
// result 0.25

// query Could you please provide reported MIC80 for CCCNC(=S)SCC(O)(Cn1cncn1)c1ccc(F)cc1F (racemic) ? Thanks!
// result 0.25

// query Could you please provide reported MIC80 for CCNC(=S)SCC(O)(Cn1cncn1)c1ccc(F)cc1F (racemic) ? Thanks!
// result 1

// query Could you please provide reported MIC80 for OC(Cn1cncn1)(Cn1cncn1)c1ccc(F)cc1F ? Thanks!
// result 0.25

// query Could you please provide reported MIC80 for CN(C(=S)SCC(O)(Cn1cncn1)c1ccc(F)cc1F)c1ccccc1 (racemic) ? Thanks!
// result 0.5

// query Could you please provide reported MIC80 for C=CCNC(=S)SCC(O)(Cn1cncn1)c1ccc(F)cc1F (racemic) ? Thanks!
// result 0.5

// query Could you please provide reported MIC80 for OC(CSC(=S)NC1CC1)(Cn1cncn1)c1ccc(F)cc1F (racemic) ? Thanks!
// result 1

// query Could you please provide reported MIC80 for OCCN(Cc1ccccc1)C(=S)SCC(O)(Cn1cncn1)c1ccc(F)cc1F (racemic) ? Thanks!
// result 0.25

* * *

Tested on: Candida albicans
procedure-summary: Antifungal activity against Candida albicans Y0109 after 24 hrs by micro-broth dilution method
Type: functional
particulars: Y0109, 24 h
measure: MIC80 (µg/mL)
Answer with a number only, understood to be in µg/mL.

// query Could you please provide reported MIC80 for CN(C/C=C/C#CC(C)(C)C)Cc1cccc2ccccc12 ? Thanks!
// result 16

// query Could you please provide reported MIC80 for OCCN(Cc1ccccc1)C(=S)SCC(O)(Cn1cncn1)c1ccc(F)cc1F (racemic) ? Thanks!
// result 0.25

* * *

For each record, write down the corresponding MIC80.
Tested on: Candida albicans
procedure-summary: Antifungal activity against Candida albicans Y0109 after 24 hrs by micro-broth dilution method
Type: functional
particulars: Y0109, 24 h
Answer with a number only, understood to be in µg/mL.

// query Could you please provide reported MIC80 for CCC(C)n1ncn(-c2ccc(N3CCN(c4ccc(OCC5COC(Cn6cncn6)(c6ccc(Cl)cc6Cl)O5)cc4)CC3)cc2)c1=O (stereo not drawn) [ITRACONAZOLE] ? Thanks!
// result 8

// query Could you please provide reported MIC80 for CN(Cc1ccccc1)C(=S)SCC(O)(Cn1cncn1)c1ccc(F)cc1F (racemic) ? Thanks!
// result 0.25

* * *

Tested on: Candida albicans
procedure-summary: Antifungal activity against Candida albicans Y0109 after 24 hrs by micro-broth dilution method
Assay type: functional
particulars: Y0109, 24 h
For each record, write down the corresponding MIC80.
Answer with a number only, understood to be in µg/mL.

// query Could you please provide reported MIC80 for CN(C(=S)SCC(O)(Cn1cncn1)c1ccc(F)cc1F)c1ccccc1 (racemic) ? Thanks!
// result 0.25

// query Could you please provide reported MIC80 for CC(C)NC(=S)SCC(O)(Cn1cncn1)c1ccc(F)cc1F (racemic) ? Thanks!
// result 1

// query Could you please provide reported MIC80 for OC(CSC(=S)NC1CC1)(Cn1cncn1)c1ccc(F)cc1F (racemic) ? Thanks!
// result 1

// query Could you please provide reported MIC80 for OCCN(CCO)C(=S)SCC(O)(Cn1cncn1)c1ccc(F)cc1F (racemic) ? Thanks!
// result 8

// query Could you please provide reported MIC80 for OC(CSC(=S)N1CCN(c2ccccc2F)CC1)(Cn1cncn1)c1ccc(F)cc1F (racemic) ? Thanks!
// result 0.5

// query Could you please provide reported MIC80 for CC(=O)N1CCN(c2ccc(OCC3COC(Cn4ccnc4)(c4ccc(Cl)cc4Cl)O3)cc2)CC1 (centres undefined) [KETOCONAZOLE] ? Thanks!
// result 0.25

// query Could you please provide reported MIC80 for Cc1cccc(N2CCN(C(=S)SCC(O)(Cn3cncn3)c3ccc(F)cc3F)CC2)c1C (racemic) ? Thanks!
// result 0.5

// query Could you please provide reported MIC80 for OC(CSC(=S)NC1CCCCC1)(Cn1cncn1)c1ccc(F)cc1F (racemic) ? Thanks!
// result 0.25

// query Could you please provide reported MIC80 for OC(CSC(=S)N1CCN(c2ccccc2)CC1)(Cn1cncn1)c1ccc(F)cc1F (racemic) ? Thanks!
// result 0.25

// query Could you please provide reported MIC80 for CCNC(=S)SCC(O)(Cn1cncn1)c1ccc(F)cc1F (racemic) ? Thanks!
// result 1

// query Could you please provide reported MIC80 for OC(Cn1cncn1)(Cn1cncn1)c1ccc(F)cc1F [FLUCONAZOLE] ? Thanks!
// result 0.25

// query Could you please provide reported MIC80 for OC(CSC(=S)NCc1ccccc1)(Cn1cncn1)c1ccc(F)cc1F (racemic) ? Thanks!
// result 1

* * *

System: Candida albicans
procedure-summary: Antifungal activity against Candida albicans Y0109 after 24 hrs by micro-broth dilution method
Format: functional
particulars: Y0109, 24 h
measure: MIC80 (µg/mL)
Answer with a number only, understood to be in µg/mL.

// query Could you please provide reported MIC80 for C=CCNC(=S)SCC(O)(Cn1cncn1)c1ccc(F)cc1F (racemic) ? Thanks!
// result 0.5

// query Could you please provide reported MIC80 for CNC(=S)SCC(O)(Cn1cncn1)c1ccc(F)cc1F (racemic) ? Thanks!
// result 1

* * *

For each record, write down the corresponding MIC80.
Tested on: Candida albicans
procedure-summary: Antifungal activity against Candida albicans SC5314 after 24 hrs by micro-broth dilution method
Format: functional
particulars: SC5314, 24 h

// query Could you please provide reported MIC80 for CC(C)NC(=S)SCC(O)(Cn1cncn1)c1ccc(F)cc1F (racemic) ? Thanks!
// result 2 µg/mL

// query Could you please provide reported MIC80 for CCCCNC(=S)SCC(O)(Cn1cncn1)c1ccc(F)cc1F (racemic) ? Thanks!
// result 0.5 µg/mL

// query Could you please provide reported MIC80 for OC(CSC(=S)N1CCN(c2ccccc2Cl)CC1)(Cn1cncn1)c1ccc(F)cc1F (racemic) ? Thanks!
// result ≤ 0.125 µg/mL

// query Could you please provide reported MIC80 for O=C1CCN(C(=S)SCC(O)(Cn2cncn2)c2ccc(F)cc2F)CC1 (racemic) ? Thanks!
// result ≤ 0.125 µg/mL

// query Could you please provide reported MIC80 for CN(Cc1ccccc1)C(=S)SCC(O)(Cn1cncn1)c1ccc(F)cc1F (racemic) ? Thanks!
// result 0.25 µg/mL

* * *

Test system: Candida albicans
procedure-summary: Antifungal activity against Candida albicans SC5314 after 24 hrs by micro-broth dilution method
Type: functional
particulars: SC5314, 24 h
For each record, write down the corresponding MIC80.
Answer with a number only, understood to be in µg/mL.

// query GET MIC80 | system: Candida albicans | item: OC(CSC(=S)N1CCN(c2ccccc2F)CC1)(Cn1cncn1)c1ccc(F)cc1F (racemic)
// result 0.5

// query GET MIC80 | system: Candida albicans | item: OC(CSC(=S)NC1CCCCC1)(Cn1cncn1)c1ccc(F)cc1F (racemic)
// result 0.25

// query GET MIC80 | system: Candida albicans | item: OC(CSC(=S)NCc1ccccc1)(Cn1cncn1)c1ccc(F)cc1F (racemic)
// result 0.5

// query GET MIC80 | system: Candida albicans | item: OCCN(CCO)C(=S)SCC(O)(Cn1cncn1)c1ccc(F)cc1F (racemic)
// result 8

Reference source: ChEMBL document CHEMBL3112568
